Procedure summary: Metabolic (microsomal) stability assay, human liver microsomes (HLM)
Type: in vitro ADME
Settings: 1 μM test compound, predicted clearance as percent of liver blood flow
The following molecules are shown together with reported HLM QH values.

[
  {
    "Molecule": "CO[C@@H]1C[C@@H]([C@H](C)Oc2nc(-c3onc4c3CCC[C@@]43CCCc4sc(N)c(C#N)c43)nc3c2n(C)c(=O)n3[C@H]2COC[C@@H](C)C2)N(C)C1 [I-52]",
    "Readout unit": "%",
    "HLM QH": 46
  },
  {
    "Molecule": "C[C@H](Oc1nc(-c2noc3c2CCC[C@@]32SCCc3sc(N)c(C#N)c32)nc2c1COC[C@]21CCOC1)[C@@H]1CCCN1C [II-16]",
    "Readout unit": "%",
    "HLM QH": 64
  },
  {
    "Molecule": "C[C@H](Oc1nc(-c2noc3c2CCC[C@@]32CCCc3sc(N)c(C#N)c32)nc2c1CC[C@]21CNCCO1)[C@@H]1C[C@@H](F)CN1C [II-20]",
    "Readout unit": "%",
    "HLM QH": 36
  }
]

* * *

The following compounds are shown together with reported IC50 values.
Measurement target: KRAS (G12C)::SOS1 protein-protein interaction (Homo sapiens (Human), UniProt P01116, C118S/C51S/C80L/G12C)
Sequence (P01116 other isoform, or with tags, fused parts or gaps G12C/C51S/C80L/C118S): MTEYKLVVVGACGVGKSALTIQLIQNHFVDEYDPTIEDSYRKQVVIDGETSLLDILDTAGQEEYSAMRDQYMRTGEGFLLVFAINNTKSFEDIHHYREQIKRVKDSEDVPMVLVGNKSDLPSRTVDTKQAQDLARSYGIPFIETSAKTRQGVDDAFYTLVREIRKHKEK
Procedure summary: KRAS::SOS1 AlphaScreen binding assay (KRAS G12C)
Settings: GDP
Endpoint label: IC50 (nM)

[
  {
    "Structure notation": "CO[C@H]1C[C@H](n2c(=O)n(C)c3c(O[C@@H](C)[C@@H]4CCCN4C)nc(-c4onc5c4CCC[C@@]54CCCc5sc(N)c(C#N)c54)nc32)C1",
    "Numeric value": 5
  },
  {
    "Structure notation": "Cc1nn([C@@H]2CCOC2)c2nc(-c3onc4c3CCC[C@@]43CCCc4sc(N)c(C#N)c43)nc(O[C@@H](C)[C@@H]3CCCN3C)c12",
    "Numeric value": 2
  },
  {
    "Structure notation": "C[C@H](Oc1nc(-c2noc3c2CCC[C@@]32CCCc3sc(N)c(C#N)c32)nc2c1COC[C@]21CCOC1)[C@@H]1CCCN1C",
    "Numeric value": 1
  },
  {
    "Structure notation": "C[C@H](Oc1nc(-c2onc3c2CCC[C@@]32CCCc3sc(N)c(C#N)c32)nc2c1n(C)c(=O)n2[C@@H]1CCOC1)[C@@H]1CCCN1C",
    "Numeric value": 1
  },
  {
    "Structure notation": "CO[C@H]1C[C@@H](n2c(=O)n(C)c3c(O[C@@H](C)[C@@H]4CCCN4C)nc(-c4onc5c4CCC[C@@]54CCCc5sc(N)c(C#N)c54)nc32)C1",
    "Numeric value": 2
  },
  {
    "Structure notation": "C[C@H](Oc1nc(-c2onc3c2CCC[C@@]32CCCc3sc(N)c(C#N)c32)nc2c1N(C)C(=O)CN2[C@@H]1CCOC1)[C@@H]1CCCN1C",
    "Numeric value": 7
  },
  {
    "Structure notation": "C[C@H](Oc1nc(-c2onc3c2CCC[C@@]32CCCc3sc(N)c(C#N)c32)nc2c1[nH]c(=O)n2[C@@H]1CCCOC1)[C@@H]1CCCN1C",
    "Numeric value": 2
  },
  {
    "Structure notation": "COCCn1c(=O)n(C)c2c(O[C@@H](C)[C@@H]3CCCN3C)nc(-c3onc4c3CCC[C@@]43CCCc4sc(N)c(C#N)c43)nc21",
    "Numeric value": 3
  },
  {
    "Structure notation": "C[C@H](Oc1nc(-c2onc3c2CCC[C@@]32CCCc3sc(N)c(C#N)c32)nc2c1n(C)c(=O)n2[C@H]1CCC[C@@H]1O)[C@@H]1CCCN1C",
    "Numeric value": 2
  },
  {
    "Structure notation": "Cc1nc2c(O[C@@H](C)[C@@H]3CCCN3C)nc(-c3onc4c3CCC[C@@]43CCCc4sc(N)c(C#N)c43)nc2n1[C@@H]1CCOC1",
    "Numeric value": 2
  },
  {
    "Structure notation": "C[C@H](Oc1nc(-c2onc3c2CCC[C@@]32CCCc3sc(N)c(C#N)c32)nc2c1n(C)c(=O)n2[C@H]1CCCOC1)[C@@H]1CCCN1C",
    "Numeric value": 4
  },
  {
    "Structure notation": "CC(C)n1c(=O)n([C@@H]2CCOC2)c2nc(-c3onc4c3CCC[C@@]43CCCc4sc(N)c(C#N)c43)nc(O[C@@H](C)[C@@H]3CCCN3C)c21",
    "Numeric value": 2
  },
  {
    "Structure notation": "CO[C@H]1CCN(C)[C@@H]1[C@H](C)Oc1nc(-c2noc3c2CCC[C@@]32CCCc3sc(N)c(C#N)c32)nc2c1n(C)c(=O)n2[C@@H]1CCCOC1",
    "Numeric value": 2
  },
  {
    "Structure notation": "C[C@H](Oc1nc(-c2onc3c2CCC[C@@]32CCCc3sc(N)c(C#N)c32)nc2c1ncn2[C@@H]1CCOC1)[C@@H]1CCCN1C",
    "Numeric value": 2
  }
]

* * *

The following compounds are shown together with reported solubility at 24 h values.
Procedure summary: Solubility measurement (DMSO solution precipitation method)
Type: physicochemical
Settings: aqueous buffer, kinetic from dmso stock, McIlvaine buffer pH 6.8, 24 h, read-out: solubility pH 6.8
Endpoint label: solubility at 24 h (µg/mL)

[
  {
    "Structure notation": "C[C@@H]1COC[C@H](n2c(=O)n(C)c3c(O[C@@H](C)[C@@H]4CC[C@H](C)N4C)nc(-c4onc5c4CCC[C@@]54CCCc5sc(N)c(C#N)c54)nc32)C1",
    "Comparison symbol": "=",
    "Numeric value": 19
  },
  {
    "Structure notation": "CO[C@H]1CCN(C)[C@@H]1[C@H](C)Oc1nc(-c2onc3c2CCC[C@@]32CCCc3sc(N)c(C#N)c32)nc2c1n(C)c(=O)n2[C@@H]1CCOC1",
    "Comparison symbol": "=",
    "Numeric value": 36
  },
  {
    "Structure notation": "C[C@H](Oc1nc(-c2onc3c2CCC[C@@]32CCCc3sc(N)c(C#N)c32)nc2c1COC[C@]21CCOC1)[C@@H]1CCCN1C",
    "Comparison symbol": ">",
    "Numeric value": 142
  }
]

* * *

Procedure summary: Solubility measurement (DMSO solution precipitation method)
Assay type: physicochemical
Settings: aqueous buffer, kinetic from dmso stock, McIlvaine buffer pH 6.8, 24 h, read-out: solubility pH 6.8
The following compounds are shown together with reported solubility at 24 h values.
Endpoint label: solubility at 24 h (µg/mL)

[
  {
    "Structure notation": "C[C@H](Oc1nc(-c2noc3c2CCC[C@@]32CCCc3sc(N)c(C#N)c32)nc2c1CN(C1COC1)C[C@]21CCOC1)[C@@H]1CC[C@H](C)N1C",
    "Readout unit": "µg/mL",
    "Comparison symbol": "=",
    "Numeric value": 102
  },
  {
    "Structure notation": "C[C@H](Oc1nc(-c2onc3c2CCC[C@@]32CCCc3sc(N)c(C#N)c32)nc2c1n(C)c(=O)n2[C@@H]1CCOC1)[C@@H]1C[C@H](F)CN1C",
    "Readout unit": "µg/mL",
    "Comparison symbol": "=",
    "Numeric value": 9
  },
  {
    "Structure notation": "CO[C@H]1CCN(C)[C@@H]1[C@H](C)Oc1nc(-c2onc3c2CCC[C@@]32CCCc3sc(N)c(C#N)c32)nc2c1n(C)c(=O)n2[C@@H]1CCCOC1",
    "Readout unit": "µg/mL",
    "Comparison symbol": "<",
    "Numeric value": 1
  }
]

* * *

Procedure summary: Solubility measurement (DMSO solution precipitation method)
Type: physicochemical
Settings: aqueous buffer, kinetic from dmso stock, McIlvaine buffer pH 4.5, 24 h, read-out: solubility pH 4.5
The following compounds are shown together with reported solubility at 24 h values.

[
  {
    "Structure notation": "C[C@H](Oc1nc(-c2onc3c2CCC[C@@]32CCCc3sc(N)c(C#N)c32)nc2c1[nH]c(=O)n2[C@@H]1CCCOC1)[C@@H]1CCCN1C",
    "solubility at 24 h": "> 0.148 mg/mL"
  },
  {
    "Structure notation": "C[C@H](Oc1nc(-c2onc3c2CCC[C@@]32CCCc3sc(N)c(C#N)c32)nc2c1n(C)c(=O)n2C1CCOCC1)[C@@H]1CCCN1C",
    "solubility at 24 h": "> 0.151 mg/mL"
  },
  {
    "Structure notation": "C[C@@H]1COC[C@H](n2c(=O)n(C)c3c(O[C@@H](C)[C@@H]4CC[C@H](C)N4C)nc(-c4onc5c4CCC[C@@]54CCCc5sc(N)c(C#N)c54)nc32)C1",
    "solubility at 24 h": "> 0.153 mg/mL"
  },
  {
    "Structure notation": "CO[C@H]1C[C@@H](n2c(=O)n(C)c3c(O[C@@H](C)[C@@H]4CCCN4C)nc(-c4onc5c4CCC[C@@]54CCCc5sc(N)c(C#N)c54)nc32)C1",
    "solubility at 24 h": "> 0.158 mg/mL"
  },
  {
    "Structure notation": "C[C@H](Oc1nc(-c2onc3c2CCC[C@@]32CCCc3sc(N)c(C#N)c32)nc2c1n(C)c(=O)n2[C@H]1CCOC1)[C@@H]1CCCN1C",
    "solubility at 24 h": "> 0.149 mg/mL"
  },
  {
    "Structure notation": "CO[C@H]1C[C@H](n2c(=O)n(C)c3c(O[C@@H](C)[C@@H]4CCCN4C)nc(-c4onc5c4CCC[C@@]54CCCc5sc(N)c(C#N)c54)nc32)C1",
    "solubility at 24 h": "> 0.154 mg/mL"
  }
]
